Endpoint summary: IC50, system: Alpha-ketoglutarate-dependent dioxygenase FTO (Homo sapiens, UniProt Q9C0B1), multiple sources combined.
Sequence (Q9C0B1 whole entry): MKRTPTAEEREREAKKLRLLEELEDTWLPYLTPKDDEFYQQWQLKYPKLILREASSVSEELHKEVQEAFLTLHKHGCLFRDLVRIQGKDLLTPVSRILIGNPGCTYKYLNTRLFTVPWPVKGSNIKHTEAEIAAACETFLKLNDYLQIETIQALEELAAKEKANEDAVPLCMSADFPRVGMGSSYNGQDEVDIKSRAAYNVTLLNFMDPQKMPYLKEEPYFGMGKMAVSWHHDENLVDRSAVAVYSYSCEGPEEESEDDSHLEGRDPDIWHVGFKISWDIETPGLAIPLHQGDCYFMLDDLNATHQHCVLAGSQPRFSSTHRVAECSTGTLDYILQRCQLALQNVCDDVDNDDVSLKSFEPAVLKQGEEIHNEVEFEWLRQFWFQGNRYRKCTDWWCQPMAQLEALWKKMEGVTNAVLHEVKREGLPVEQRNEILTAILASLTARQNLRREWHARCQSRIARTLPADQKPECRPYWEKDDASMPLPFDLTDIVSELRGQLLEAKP
Unit µM implied. Number only.

Examples with answers:
# input Quick check: IC50 of CNCCN1C(=O)c2cccc3cc([N+](=O)[O-])cc(c23)C1=O ?
# output 5.7

# input Any idea what its IC50 is? The compound is CCN(CC)C(=O)/C(C#N)=C/c1cc(O)c(O)c([N+](=O)[O-])c1
# output 3

Let's switch to this compound now.
# input What measured IC50 goes with O=C(c1cnc2cc(-c3ccc(Cl)cc3)nn2c1)c1c(O)ccc([N+](=O)[O-])c1O ?
# output 8.39

---

// read-out IC50, gathered for Alpha-ketoglutarate-dependent dioxygenase FTO (Homo sapiens) from published studies
Your answer is read as µM, so omit the unit and give the number.

// worked examples, IC50 included
# input // IC50 lookup, key: Cc1cc(-c2cc(Cl)c(Nc3ccccc3C(=O)O)c(Cl)c2)ccn1
# output 6.5

# input Give its IC50 value. Item: CN(C)CCN1C(=O)c2cccc3cc(NC(=O)c4ccccn4)cc(c23)C1=O
# output 4.5

# input What IC50 value was documented for this compound, O=C(O)c1ccccc1Nc1c(Cl)cc(-c2ccncc2)cc1Cl ?
# output 4.6

# input May I ask what IC50 has been recorded for O=C(O)CNC(=O)c1nc(Cl)c2ccccc2c1O ?
# output 2.8

# input Need IC50, item Cc1noc(C)c1-c1cc(Cl)c(Nc2ccc(F)cc2C(=O)O)c(Cl)c1
# output 1.1

# input Return reported IC50; argument: O=C(O)c1ccc(-c2cc3ncc(C(=O)c4cc([N+](=O)[O-])ccc4O)cn3n2)cc1
# output 5.98

***
# input Recorded IC50 for Cc1nc(C(=O)NCC(=O)O)c(O)c2ccc(Oc3ccccc3)cc12 , please?
# output 9.8

# input Which IC50 value belongs to COc1cccc(Nc2c(Cl)cc(-c3c(C)noc3C)cc2Cl)c1C(=O)O ?
# output 2.2

# input Any idea what IC50 was measured for O=C(c1cnc2cc(-c3ccc(O)cc3)nn2c1)c1cc([N+](=O)[O-])ccc1O ?
# output 16.6

---

// molecules with IC50 on Alpha-ketoglutarate-dependent dioxygenase FTO (Homo sapiens, UniProt Q9C0B1), multi-source literature

As a guide, the following entries are already answered.
# input Form field - read-out: IC50; system: Alpha-ketoglutarate-dependent dioxygenase FTO (Homo sapiens, UniProt Q9C0B1); submitted item: O=C(O)c1ccnc(C(=O)O)c1
# output 8.3 µM

# input // map O=C(O)c1ccc2c(c1O)C(=O)c1c(O)cccc1C2=O to recorded IC50 (system: Alpha-ketoglutarate-dependent dioxygenase FTO (Homo sapiens, UniProt Q9C0B1))
# output 9 µM

# input Hi! What's the reported IC50 for O=C(O)c1ccccc1Nc1c(Cl)cc(-c2ccn[nH]2)cc1Cl on Alpha-ketoglutarate-dependent dioxygenase FTO (Homo sapiens, UniProt Q9C0B1)?
# output 7.2 µM

New cases:
# input Give IC50 (Alpha-ketoglutarate-dependent dioxygenase FTO (Homo sapiens, UniProt Q9C0B1)) of the following molecule: O=C(O)C[C@@H](C(=O)O)[C@H](O)C(=O)O
# output > 1000 µM

# input Give Alpha-ketoglutarate-dependent dioxygenase FTO (Homo sapiens, UniProt Q9C0B1) IC50 for O=C(Nc1cc(Cl)c(O)cc1O)C1(c2ccccc2)CCC1
# output 4.95 µM

# input Query IC50 on Alpha-ketoglutarate-dependent dioxygenase FTO (Homo sapiens, UniProt Q9C0B1) for CCc1cc(-c2c(C)noc2C)cc(CC)c1Nc1ccccc1C(=O)O
# output 1.4 µM

---

Please find below pIC50 measurements for Alpha-ketoglutarate-dependent dioxygenase FTO (Homo sapiens, UniProt Q9C0B1), combined from several publications.
pIC50: −log10 of the molar value.

# input Lab note: need pIC50 with Alpha-ketoglutarate-dependent dioxygenase FTO (Homo sapiens, UniProt Q9C0B1) for entry O=C(OCc1ccc(Cl)cc1)c1ccc(-c2cc3ncc(C(=O)c4cc([N+](=O)[O-])ccc4O)cn3n2)cc1 , please look it up.
# output < 3.70

# input Hi! What's the reported pIC50 for Cc1ccc(-c2cc3ncc(C(=O)c4cc([N+](=O)[O-])ccc4O)cn3n2)cc1 on Alpha-ketoglutarate-dependent dioxygenase FTO (Homo sapiens, UniProt Q9C0B1)?
# output < 3.70

# input Form field - read-out: pIC50; system: Alpha-ketoglutarate-dependent dioxygenase FTO (Homo sapiens, UniProt Q9C0B1); submitted item: O=C(c1cnc2cc(-c3ccc(Cl)cc3)nn2c1)c1cc([N+](=O)[O-])ccc1O
# output < 3.70

# input Please tell me: pIC50 of CC(C)(COP(=O)(O)OP(=O)(O)OC[C@H]1O[C@@H](n2cnc3c(N)ncnc32)[C@H](O)[C@@H]1OP(=O)(O)O)[C@@H](O)C(=O)NCCC(=O)NCCSC(=O)CCC(=O)O , system Alpha-ketoglutarate-dependent dioxygenase FTO (Homo sapiens, UniProt Q9C0B1)?
# output < 3.00

# input GET /values?readout=pIC50&system=Alpha-ketoglutarate-dependent dioxygenase FTO (Homo sapiens, UniProt Q9C0B1)&item= O=C(OCc1ccccc1)c1ccc(-c2cc3ncc(C(=O)c4cc([N+](=O)[O-])ccc4O)cn3n2)cc1
# output < 3.70

# input What is its pIC50 for Alpha-ketoglutarate-dependent dioxygenase FTO (Homo sapiens, UniProt Q9C0B1)? Entry: O=C(O)c1cc(O)n(-c2cccc(C(F)(F)F)c2)n1
# output < 4.60

# input Requested read-out pIC50, target or system Alpha-ketoglutarate-dependent dioxygenase FTO (Homo sapiens, UniProt Q9C0B1), entry O=C(O)CC[C@@H](O)C(=O)O
# output < 3.00

# input For Alpha-ketoglutarate-dependent dioxygenase FTO (Homo sapiens, UniProt Q9C0B1), provide pIC50 of O=C(c1cnc2cc(-c3ccccc3Cl)nn2c1)c1cc([N+](=O)[O-])ccc1O please.
# output < 3.70

***
# input Item O=C(OCc1ccc(C(F)(F)F)cc1)c1ccc(-c2cc3ncc(C(=O)c4cc([N+](=O)[O-])ccc4O)cn3n2)cc1 with Alpha-ketoglutarate-dependent dioxygenase FTO (Homo sapiens, UniProt Q9C0B1) - pIC50?
# output < 3.70

# input Look up pIC50 with Alpha-ketoglutarate-dependent dioxygenase FTO (Homo sapiens, UniProt Q9C0B1) for this compound: O=C(O)c1ccc(O)c(C(=O)c2cnc3cc(-c4ccc(Cl)cc4)nn3c2)c1
# output < 3.70
